- System: xylene-induced ear swelling
- method_description: Xylene-induced mouse ear swelling
- Assay type: in vivo
- run_conditions: Kunming mice, dose 4 mg/kg, injected once a day for 5 days; right minus left ear piece weight 2 h after xylene
Peptide text beside a SMILES is read from it. * marks the point of attachment. X65 = O=C1C=CC(=O)N1c1cccc(CCCCCCCCCCCCC(=O)*)c1; X54 = O=C1C=CC(=O)N1c1cccc(CCCCCCC(=O)*)c1; X46 = O=C1C=CC(=O)N1c1cccc(CCCCC(=O)*)c1; X63 = O=C1C=CC(=O)N1c1ccccc1CCCCCCC(=O)*; X79 = O=C1C=CC(=O)N1c1cccc(CCC(=O)*)c1
endpoint_label: Swelling degree (mg)
Your answer is read as mg, so omit the unit and give the number.

Solved cases below.
1) C[C@H](NC(=O)CNC(=O)[C@H](CCCNC(=N)N)NC(=O)CCCCCCc1ccccc1N1C(=O)C=CC1=O)C(=O)N[C@@H](CC(=O)O)C(=O)N[C@@H](CCCNC(=N)N)C(=O)N[C@@H](C)C(=O)NCC(=O)NCC(=O)NCC(=O)NCC(=O)N[C@@H](CCCNC(=N)N)C(=O)NCC(=O)N[C@@H](CC(=O)O)C(=O)O [X18] (X63-RGADRAGGGGRGD-OH)
5.28
2) C[C@H](NC(=O)CNC(=O)[C@H](CCCNC(=N)N)NC(=O)CCCCCCCCCCCCc1cccc(N2C(=O)C=CC2=O)c1)C(=O)N[C@@H](CC(=O)O)C(=O)N[C@@H](CCCNC(=N)N)C(=O)N[C@@H](C)C(=O)NCC(=O)NCC(=O)NCC(=O)NCC(=O)N[C@@H](CCCNC(=N)N)C(=O)NCC(=O)N[C@@H](CC(=O)O)C(=O)O [X36] (X65-RGADRAGGGGRGD-OH)
5.37

Entry C[C@H](NC(=O)CNC(=O)[C@H](CCCNC(=N)N)NC(=O)CCc1cccc(N2C(=O)C=CC2=O)c1)C(=O)N[C@@H](CC(=O)O)C(=O)N[C@@H](CCCNC(=N)N)C(=O)N[C@@H](C)C(=O)NCC(=O)NCC(=O)NCC(=O)NCC(=O)N[C@@H](CCCNC(=N)N)C(=O)NCC(=O)N[C@@H](CC(=O)O)C(=O)O [X26] (X79-RGADRAGGGGRGD-OH) ; Swelling degree = 5.78

Recorded result, C[C@H](NC(=O)CNC(=O)[C@H](CCCNC(=N)N)NC(=O)CCCCc1cccc(N2C(=O)C=CC2=O)c1)C(=O)N[C@@H](CC(=O)O)C(=O)N[C@@H](CCCNC(=N)N)C(=O)N[C@@H](C)C(=O)NCC(=O)NCC(=O)NCC(=O)NCC(=O)N[C@@H](CCCNC(=N)N)C(=O)NCC(=O)N[C@@H](CC(=O)O)C(=O)O [X28] (X46-RGADRAGGGGRGD-OH) , Swelling degree: 4.86

For this compound ( C[C@H](NC(=O)CNC(=O)[C@H](CCCNC(=N)N)NC(=O)CCCCCCc1cccc(N2C(=O)C=CC2=O)c1)C(=O)N[C@@H](CC(=O)O)C(=O)N[C@@H](CCCNC(=N)N)C(=O)N[C@@H](C)C(=O)NCC(=O)NCC(=O)NCC(=O)NCC(=O)N[C@@H](CCCNC(=N)N)C(=O)NCC(=O)N[C@@H](CC(=O)O)C(=O)O [X30] (X54-RGADRAGGGGRGD-OH) ), measured Swelling degree is 5.07
